Each recorded value in this set is attributed to ChEMBL document CHEMBL5291721.

Biological target: Adenosine receptor A3 (Homo sapiens, UniProt P0DMS8); further: assay procedure not described here
Sequence (P0DMS8 whole entry): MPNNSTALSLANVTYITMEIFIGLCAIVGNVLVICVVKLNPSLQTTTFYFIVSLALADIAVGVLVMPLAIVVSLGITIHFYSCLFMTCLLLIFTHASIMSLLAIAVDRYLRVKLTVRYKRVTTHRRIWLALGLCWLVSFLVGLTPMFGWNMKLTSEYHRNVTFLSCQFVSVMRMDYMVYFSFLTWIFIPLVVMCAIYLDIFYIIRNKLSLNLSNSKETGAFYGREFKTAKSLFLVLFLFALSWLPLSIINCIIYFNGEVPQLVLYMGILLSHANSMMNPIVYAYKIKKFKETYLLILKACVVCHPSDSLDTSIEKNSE
# AC50 per record follows

Below, each entry is followed by its recorded AC50 result.
CC[C@@H]1C[C@]1(NC(=O)[C@@H]1C[C@@H]2CN1C(=O)[C@H](C(C)(C)C)NC(=O)OCC(C)(C)CCCCc1cccc3c1CN(C3)C(=O)O2)C(=O)NS(=O)(=O)C1CC1 :: 12.6 µM
C[C@H](N[C@@H](CCc1ccccc1)C(=O)O)C(=O)N1Cc2ccccc2C[C@H]1C(=O)O :: > 30 µM
O=C1Cc2cc(CCN3CCN(c4nsc5ccccc45)CC3)c(Cl)cc2N1 [ZIPRASIDONE] :: 8.66 µM
COc1c2occc2c(OC)c2c(=O)cc(C)oc12 [KHELLIN] :: > 30 µM
Clc1ccc(C(Cn2ccnc2)OCc2csc3c(Cl)cccc23)c(Cl)c1 (stereo not given) [SERTACONAZOLE] :: 1.63 µM

In: Need AC50, item Cc1ccccc1C(=O)Nc1ccc(C(=O)N2CCCC(O)c3cc(Cl)ccc32)c(C)c1 (stereo not given) [TOLVAPTAN]
Out: 11 µM

In: Moving on to CCC1=C[C@@H]2CN(C1)Cc1c([nH]c3ccccc13)[C@@](C(=O)OC)(c1cc3c(cc1OC)N(C)[C@H]1[C@@](O)(C(=O)OC)[C@H](OC(C)=O)[C@]4(CC)C=CCN5CC[C@]31[C@@H]54)C2 [VINORELBINE]
Out: > 30 µM

In: Next entry: CC(C)(C)NC(=O)N[C@H](C(=O)N1C[C@H]2[C@@H]([C@H]1C(=O)NC(CC1CCC1)C(=O)C(N)=O)C2(C)C)C(C)(C)C (stereo not given in full) [BOCEPREVIR]
Out: > 30 µM
